Entries and their pIC50
# test target: bovine cardiac myofibrils (full-length cardiac myosin ATPase in the native sarcomere) (Bos taurus (Bovine), UniProt Q9BE39)
# Sequence (Q9BE39 whole entry): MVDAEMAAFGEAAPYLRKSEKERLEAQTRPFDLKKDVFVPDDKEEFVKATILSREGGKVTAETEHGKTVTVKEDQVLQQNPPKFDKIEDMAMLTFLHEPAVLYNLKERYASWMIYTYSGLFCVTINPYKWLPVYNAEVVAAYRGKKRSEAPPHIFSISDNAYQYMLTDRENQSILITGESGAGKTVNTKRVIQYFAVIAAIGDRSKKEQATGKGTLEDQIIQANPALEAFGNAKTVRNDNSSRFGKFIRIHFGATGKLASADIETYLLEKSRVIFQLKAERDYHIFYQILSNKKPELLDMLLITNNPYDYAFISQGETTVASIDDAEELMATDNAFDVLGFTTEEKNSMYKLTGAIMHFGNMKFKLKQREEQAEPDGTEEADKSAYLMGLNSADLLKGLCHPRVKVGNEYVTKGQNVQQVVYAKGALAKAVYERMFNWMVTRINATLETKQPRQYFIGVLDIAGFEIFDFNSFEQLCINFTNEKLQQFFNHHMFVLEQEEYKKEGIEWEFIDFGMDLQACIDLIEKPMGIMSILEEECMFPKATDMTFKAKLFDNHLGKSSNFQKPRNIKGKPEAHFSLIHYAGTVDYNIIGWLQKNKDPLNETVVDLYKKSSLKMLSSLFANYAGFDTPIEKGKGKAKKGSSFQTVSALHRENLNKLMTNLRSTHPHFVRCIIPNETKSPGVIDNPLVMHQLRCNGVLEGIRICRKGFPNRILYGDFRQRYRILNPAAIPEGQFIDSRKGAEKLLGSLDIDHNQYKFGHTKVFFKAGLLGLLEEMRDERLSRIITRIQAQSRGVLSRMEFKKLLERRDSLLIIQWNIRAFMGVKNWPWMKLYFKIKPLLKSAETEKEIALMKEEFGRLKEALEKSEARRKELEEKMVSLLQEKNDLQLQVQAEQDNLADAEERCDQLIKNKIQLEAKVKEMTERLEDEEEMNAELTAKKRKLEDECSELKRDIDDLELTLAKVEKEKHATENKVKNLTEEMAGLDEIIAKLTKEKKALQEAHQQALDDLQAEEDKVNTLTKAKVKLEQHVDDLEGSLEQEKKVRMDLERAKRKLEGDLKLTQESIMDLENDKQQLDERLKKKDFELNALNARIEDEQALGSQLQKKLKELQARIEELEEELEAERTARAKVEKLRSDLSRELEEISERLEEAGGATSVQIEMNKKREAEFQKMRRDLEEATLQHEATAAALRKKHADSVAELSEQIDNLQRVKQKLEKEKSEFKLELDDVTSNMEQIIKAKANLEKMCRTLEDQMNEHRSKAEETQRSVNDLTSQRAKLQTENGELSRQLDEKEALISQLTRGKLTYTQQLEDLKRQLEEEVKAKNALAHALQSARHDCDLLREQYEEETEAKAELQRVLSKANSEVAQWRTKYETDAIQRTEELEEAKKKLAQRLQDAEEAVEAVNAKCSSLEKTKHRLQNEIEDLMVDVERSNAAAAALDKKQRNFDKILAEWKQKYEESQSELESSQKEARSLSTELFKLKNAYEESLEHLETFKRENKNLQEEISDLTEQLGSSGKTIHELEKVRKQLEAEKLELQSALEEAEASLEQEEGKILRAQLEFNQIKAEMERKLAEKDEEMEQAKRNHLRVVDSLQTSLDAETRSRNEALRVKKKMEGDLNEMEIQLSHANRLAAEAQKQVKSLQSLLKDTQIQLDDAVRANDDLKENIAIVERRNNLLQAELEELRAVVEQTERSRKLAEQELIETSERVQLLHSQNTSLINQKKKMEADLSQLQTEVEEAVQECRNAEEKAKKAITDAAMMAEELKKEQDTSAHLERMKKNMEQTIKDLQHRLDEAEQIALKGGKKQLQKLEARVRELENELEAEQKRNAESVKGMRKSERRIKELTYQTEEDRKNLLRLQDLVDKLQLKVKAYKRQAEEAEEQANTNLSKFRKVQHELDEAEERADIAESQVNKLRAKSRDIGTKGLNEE
# Sequence (P85100 whole entry partner): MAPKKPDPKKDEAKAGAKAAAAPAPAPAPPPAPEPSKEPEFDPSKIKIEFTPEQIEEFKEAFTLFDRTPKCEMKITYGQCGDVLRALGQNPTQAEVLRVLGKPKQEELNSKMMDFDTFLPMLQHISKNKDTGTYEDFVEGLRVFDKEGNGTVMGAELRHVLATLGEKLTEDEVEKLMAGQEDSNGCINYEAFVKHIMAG
# Sequence (Q3SZE5 whole entry partner): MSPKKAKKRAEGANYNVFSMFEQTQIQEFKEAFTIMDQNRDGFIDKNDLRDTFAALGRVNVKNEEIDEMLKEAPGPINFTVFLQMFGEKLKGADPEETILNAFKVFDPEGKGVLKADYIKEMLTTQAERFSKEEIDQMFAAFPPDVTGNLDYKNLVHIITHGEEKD
# test name: Skinned bovine cardiac myofibril ATPase assay (PK/LDH-coupled)
# condition label: Ca2+ activating to 75% of maximal rate, read-out: CDMF75 IC50
Quick note: pIC50 means taking -log10 of the concentration in moles per liter.

// returns reported pIC50 for input C[C@H](CO)c1nc(-c2ccc3c(c2)CC[C@H]3NC(=O)c2ccnn2C)no1
4.41

Request: Cc1cc(C(=O)N[C@@H]2CCc3cc(-c4cc(C(F)F)no4)ccc32)ccn1
5.16

Request: CCc1nc(-c2ccc3c(c2)CC[C@H]3NC(=O)c2ccc(=O)[nH]c2)no1 [Compound 603]
6.00

Request: CCc1nc(-c2ccc3c(c2)CC[C@H]3NC(=O)c2ccn(C)c(=O)c2)no1
5.08

Request: Cc1nc(-c2ccc3c(c2)OCC3NC(=O)c2ccccc2)no1 (stereo not drawn)
5.70

---
// returns reported pIC50 for input Cc1nc(-c2ccc3c(c2)CC[C@H]3NC(=O)C(F)F)no1
4.95

Request: CCc1nc(-c2ccc3c(c2)CC[C@H]3NC(=O)c2ccncc2)no1
6.00

---

Entries and their CDMF75 IC15
# test target: bovine cardiac myofibrils (full-length cardiac myosin ATPase in the native sarcomere) (Bos taurus (Bovine))
# test name: Skinned bovine cardiac myofibril ATPase assay (PK/LDH-coupled)
# Type: biochemical
# condition label: Ca2+ activating to 75% of maximal rate, concentration giving 15% inhibition
Write the answer as a number in nM, unit excluded.

Use the examples below as a reference point.
// returns reported CDMF75 IC15 for input COCc1nc(-c2ccc3c(c2)CC[C@H]3NC(=O)c2cnn(C)c2C)no1
1100

Request: CCc1nc(-c2ccc3c(c2)CC[C@H]3NC(=O)c2cnn(CCOC)c2)no1
800

Request: Cc1nc(-c2ccc3c(c2)OC[C@H]3NC(=O)c2cc(CO)ccn2)no1
1100

Request: Cn1cncc1C(=O)NC1CCc2cc(-c3noc(C(F)F)n3)ccc21 (centres unmarked)
700

Request: CCc1nc(-c2ccc3c(c2)CC[C@H]3NC(=O)c2cccc(C(O)CO)c2)no1 (some centres unmarked)
700

Request: CCc1nc(-c2ccc3c(c2)CC[C@H]3NC(=O)c2ccno2)no1 [Compound 581]
400

Request: Cc1nc(-c2ccc3c(c2)OCC3NC(=O)c2cnn(C)c2C)no1 (centres unmarked)
1600

Request: Cn1nnc(C(=O)N[C@@H]2CCc3cc(-c4noc(C5CC5)n4)ccc32)n1
300

We now examine a further molecule.
// returns reported CDMF75 IC15 for input Cc1ncc(C(=O)N[C@@H]2CCc3cc(-c4noc(C5(C)CC5)n4)ccc32)o1
700

---

# test target: bovine cardiac myofibrils (full-length cardiac myosin ATPase in the native sarcomere) (Bos taurus (Bovine), UniProt Q9BE39)
# test name: Skinned bovine cardiac myofibril ATPase assay (PK/LDH-coupled)
# condition label: Ca2+ activating to 75% of maximal rate, read-out: CDMF75 IC50
Entries and their pIC50
Quick note: pIC50 means taking -log10 of the concentration in moles per liter.

// returns reported pIC50 for input Cc1cc(C(=O)N[C@@H]2COc3cc(-c4noc(C(F)F)n4)ccc32)n(C)n1
6.05

Request: CCc1nc(-c2ccc3c(c2)CC[C@H]3NC(=O)c2cnn(CCOC)c2C)no1 [Compound 574]
5.38

Request: CCc1cc(-c2ccc3c(c2)CC[C@H]3NC(=O)c2ocnc2C)no1
6.22

Request: C[C@@H](O)c1nc(-c2ccc3c(c2)CC[C@H]3NC(=O)c2cnn(C)c2)no1
4.41

---
// returns reported pIC50 for input CCc1nc(-c2ccc3c(c2)CC[C@H]3NC(=O)OCC2CC2)no1
6.05

Request: Cc1nn(CCO)cc1C(=O)N[C@@H]1CCc2cc(-c3noc(C(F)F)n3)ccc21
5.51

Hello, the source for this data is patent US12065436B2, in case you need it.
